Data origin: patent US6458951B2

molecular target: UniProt:O76074
pIC50: −log10 of the molar value.
metric name: pIC50

P = CCCc1nn(Cc2ncccn2)c2c(=O)[nH]c(-c3cc(S(=O)(=O)N4CCN(CC)CC4)cnc3OCCOC)nc12
Q = CCCc1c2nc(-c3cc(S(=O)(=O)N4CCN(CC)CC4)cnc3OCC)[nH]c(=O)c2nn1Cc1ncccn1 [Example 43b]
Request: Pick the one with the larger pIC50: P vs Q Your choice should be expressed through its label.
Result: Q
(Q: 8.44, P: 8.16)

---

target: cGMP PDE5 (UniProt O76074)
metric name: IC50 (nM)

given smiles | IC50 (nM)
CCCc1c2nc(-c3cc(S(=O)(=O)N4CCN(CC)CC4)cnc3OCCOCC)[nH]c(=O)c2nn1Cc1ccccn1 | 10.1
CCc1c2nc(-c3cc(S(=O)(=O)N4CCN(CC)CC4)cnc3O[C@@H]3CCOC3)[nH]c(=O)c2nn1Cc1ccccn1 | 8.9
CCc1c2nc(-c3cc(S(=O)(=O)N4CCN(CC)CC4)cnc3OCCCOC)[nH]c(=O)c2nn1Cc1ccccn1 | 10
CCCc1nn(C)c2c(=O)[nH]c(-c3cc(S(=O)(=O)N4CCN(CC)CC4)cnc3OCc3ccccn3)nc12 | 7.3
